These entries and their values trace back to patent US9512107B2.

Study Target: IDH2 R140Q (Homo sapiens, UniProt P48735, R140Q)
Sequence (P48735 40-452 R140Q): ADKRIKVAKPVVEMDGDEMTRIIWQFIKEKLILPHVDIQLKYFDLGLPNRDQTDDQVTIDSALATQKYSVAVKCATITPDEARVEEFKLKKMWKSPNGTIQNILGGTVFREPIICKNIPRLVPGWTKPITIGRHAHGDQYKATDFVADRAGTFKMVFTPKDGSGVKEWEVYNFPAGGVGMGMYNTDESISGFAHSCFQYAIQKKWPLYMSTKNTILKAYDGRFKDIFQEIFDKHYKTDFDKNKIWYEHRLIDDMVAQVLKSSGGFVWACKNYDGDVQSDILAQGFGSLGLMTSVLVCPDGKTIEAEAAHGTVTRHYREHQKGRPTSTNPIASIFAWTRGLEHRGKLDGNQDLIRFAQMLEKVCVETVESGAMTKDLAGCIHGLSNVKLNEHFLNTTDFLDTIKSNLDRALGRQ
Protocol Summary: IDH2 R140Q enzymatic assay (cofactor depletion, similar format)
Type: biochemical
Experimental Parameters: read-out: Enz R140Q
Description: [The source words this procedure for another variant and says it was used here with some conditions changed.] Compounds are assayed for IDH2 R172K inhibitory activity through a cofactor depletion assay. […] The reaction is terminated by the addition of a second enzyme, diaphorase, and a corresponding substrate, resazurin. […]
pIC50: −log10 of the molar value.
Readout Type: pIC50

# pIC50 of O=C(Nc1nc(Nc2ccccc2)nc(-c2ccccc2)n1)C1CC1 [Compound 233] = > 7.00

Per the records, this molecule ( CC(C)Nc1nc(Nc2cncc(Cl)c2)nc(-c2ccccc2)n1 [Compound 194] ) has pIC50 equal to > 7.00

// pIC50 lookup, molecule = CC(C)Nc1nc(Nc2ccccc2)nc(-c2ncccc2Cl)n1 [Compound 230] , result: 6.00 to 7.00
